System: West Nile virus (WNV)
EXPERIMENTAL_PARAMETERS: Vero cells
READOUT: SI (CC50/EC50) WNV
Respond using a number only.

Some molecules with recorded SI (CC50/EC50) WNV:
[[record]]
smiles_string = "O=C(OCCCCCCCCOC(=O)c1cc(O)c(O)c(O)c1)c1cc(O)c(O)c(O)c1"
recorded_measurement = 5.9

[[record]]
smiles_string = "CCCCCCCCOC(=O)c1cc(O)c(O)c(O)c1"
recorded_measurement = 6.6


Now for another entry.
Given item `O=C(OCCCCCCCCCCCCOC(=O)c1cc(O)c(O)c(O)c1)c1cc(O)c(O)c(O)c1` , the value recorded as its SI (CC50/EC50) WNV is 25.0

----------
This section presents compounds with their documented pEC50 values.
System: West Nile virus (WNV)
ASSAY: microbe, parasite or virus in culture
EXPERIMENTAL_PARAMETERS: SH-SY5Y, 24 h, read-out: EC50 WNV
Just so you know, pEC50 here is -log10 of the concentration in molar units; reply with that number alone.

Entry under test: O=C(NCCCCCCCCCCCCNC(=O)c1cc(O)c(O)c(O)c1)c1cc(O)c(O)c(O)c1 [AL-088] . Its pEC50 was 5.66

Data point: O=C(NCCCCCCCCCCCCNC(=O)c1ccc(O)c(O)c1O)c1ccc(O)c(O)c1O [AL-274] ; pEC50 = 5.72

----------
ASSAY: in vitro
EXPERIMENTAL_PARAMETERS: African green monkey
READOUT: CC50 (µM)
The response must be a number in µM with no trailing unit.

[[record]]
smiles_string = "O=C(OCCCCCCCCOC(=O)c1cc(O)c(O)c(O)c1)c1cc(O)c(O)c(O)c1"
readout = "CC50"
unit_abbreviation = "µM"
recorded_measurement = 23.2


Input `O=C(OCCCCCCCCCCCCOC(=O)c1cc(O)c(O)c(O)c1)c1cc(O)c(O)c(O)c1` . Output CC50: 5

According to the records, this compound `CCCCCCCCOC(=O)c1cc(O)c(O)c(O)c1` displays CC50 of 9.2

----------
CC50 by entry:
Tested on: Vero cells
EXPERIMENTAL_PARAMETERS: read-out: CC50 in uninfected cells, 48-h treatment; Vero cells, ATP, 48 h

[[record]]
molecule = "O=C(NCCCCCCCCCCCCNC(=O)c1cc(O)c(O)c(O)c1)c1cc(O)c(O)c(O)c1 [AL-088]"
recorded_measurement = "> 100 µM"


Then there is this molecule:
The reported CC50 of the molecule O=C(NCCCCCCCCCCCCNC(=O)c1ccc(O)c(O)c1O)c1ccc(O)c(O)c1O [AL-274] was > 100 µM

----------
Reported CC50 by item:
ASSAY: in vitro
EXPERIMENTAL_PARAMETERS: African green monkey

[[record]]
molecule = "O=C(NCCCCCCCCCCCCNC(=O)c1cc(O)c(O)c(O)c1)c1cc(O)c(O)c(O)c1"
readout = "CC50"
recorded_measurement = "> 100 µM"

[[record]]
molecule = "O=C(NCCCCCCCCCCCCNC(=O)c1ccc(O)c(O)c1O)c1ccc(O)c(O)c1O"
readout = "CC50"
recorded_measurement = "> 100 µM"


Moving on to the next molecule.
In plain terms, O=C(O)c1cc(O)c(O)c(O)c1 [Gallic acid, 3,4,5-trihydroxybenzoic acid, reference compound] has a documented CC50 of > 100 µM
